EXPERIMENT: yeast display, Sf9 membrane polyspecificity reagent, FACS + sequencing; frameworks hold sequencing errors
RECORDED_METRIC: polyreactivity (PSR sort gate)

[
  {
    "RESIDUES": "QVQLVESGGGLVQAGGSLRLTCAASGLIFPFYAMGWYRQATGKERELVAAISSRGGSTYYADSVKGRFTISRDNAKNTVYLQMSSLKPEDTAVYYCAADYGEEYEYSGQGTQVTVSS",
    "polyreactivity (PSR sort gate)": "high polyreactivity"
  },
  {
    "RESIDUES": "QVQLVESGGGLVQAVGSHRLSSAASGFTFRWYTMGWYRQAPGKERELVASIRYGGGSTYYADSVKGRFTISRDNAKNTVYLQMNCLKPEDTAVYYCAAESAWTSPYDYWGQGTQVTVSS",
    "polyreactivity (PSR sort gate)": "high polyreactivity"
  },
  {
    "RESIDUES": "QVQLVESGAGLVQAGGSLRLSCAASGITFAYYAMGWYRQAPGKERELVAAIRGGTNTYYADSVKGSYTISRDNAKNTVYFLMNSLKPEDTAVYYCAARRSSHWFTYDYWGQGTLVTVSS",
    "polyreactivity (PSR sort gate)": "high polyreactivity"
  },
  {
    "RESIDUES": "QVQLVESGGGLVQAGGSLRLSCAASGLILNSYDMGWYRQAPGKERELVAAITRSGGNTFYADSVKGRFKISRDNAKNTVYLQMNSLNPEDTAVYYCNAYYTYWSQLYYWGQGTQVTVSS",
    "polyreactivity (PSR sort gate)": "high polyreactivity"
  },
  {
    "RESIDUES": "QLQLVESGGGLVQAGGSLRITCAASGSTFYCYSMACYRQAPGKERALVARISSSSGRTYYADSVKGRFTISRDNAKNTVYLQMNLLKPEDTAVYYCAKYVYGKFDGVRYSYDYWGQGTQVTVSS",
    "polyreactivity (PSR sort gate)": "low polyreactivity"
  }
]

// "QVQLVESGGGLVQAGGSLRLSCAASGRTFLHYAMGWYRPAPGKERELVAAMSWSGGSTNYADSVKGRFTISRDNAKNTVYLQMNSLKPEDTAVYYCAADFYWVIYSTVEYGYWGQGTQVTVSS" : polyreactivity (PSR sort gate) value = low polyreactivity

// "QVQLVESGGGLVQAGGSLRLSCAASGSIFKGYAMGWYRQAPGKERELVAAISIRGGSTYYADSVKGRFTISRDNAKNTVYLQMNSLKPEDTAVYYCAASSKRKYLYNYWGQGTQVTVSS" : polyreactivity (PSR sort gate) value = high polyreactivity

// "QVQLVESGGGLVQAGGSLRLSCAASGRIFYVYTMGWYRQAPGKERELVAAITWRGGSTYYADSVKGRFTISRDNAKNTVYLQMNSLKPEDTAVYYCATAQWVGYWDDYWGQGTQVTVSS" : polyreactivity (PSR sort gate) value = high polyreactivity

// "QVQLVESGGGLVQAGGSLRLSCAASGRTFGYNAMGWYRQAPGKEREFVAAITWSGGRTYYADSVKGRFTISRDNAKNTVYLQMISLKPEDTAVYYCAAVLGRPLHGVAYGYWGQGTQVTVSS" : polyreactivity (PSR sort gate) value = low polyreactivity

// "QVQLVESGGGLFQAGGSLRLSCAASGRTVVGYAMGWYRQAPGKERELVAAFTGSGGRTYDADSVKGRFTISRDNAKNTVYLQMKSLKPEDTAVYYCNNVYRFSSGAYLYDYWVQGTQVTVSS" : polyreactivity (PSR sort gate) value = high polyreactivity

// "QVQLVESGGGLVQAGGSLRISCAASGRIFSYNDMGWYRPAPGKERELVAAITGGGSTNYADSVKGRFTISRDNAKNTVYLQMNSLKPEDTAVYYCAARSWSDKYWGQGTQVTVSS" : polyreactivity (PSR sort gate) value = high polyreactivity
